test: melting temperature; fluorescence melt of hairpins on a sequencing array, two-state fit, raised by 9.35 °C to match UV melts; settings: sodium 0.088 M
readout: Tm (°C)
Answers are plain numbers, in °C.

Would you please look over these solved cases?
* GTCCACGAAAGTGTAGAC ((((((....)))..))) | 38.9
* GTGAGCGAAAGCTTACAC ((((((....)))..))) | 49
* GGGTCTGGAAACAGACCC (((((((....))))))) | 68.8

Dear colleague, could you send me Tm for each of the items below? Thanks.
1. GGCCAAACGAAAGTTGCC (((..(((....))))))
2. GTTTCCGAAAGGAGCAAC ((((((....)))..)))

Response:
44
26.8

Dear colleague, could you send me Tm for each of the items below? Thanks.
1. GATCTTTGCAAAGATC ((((((....))))))
2. GATCTCGTAGAGATC ((((((...))))))
3. GCTACGGGAAACCGTGGC ((.((((....)))).))
4. GTGGTGGAAACACCAC ((((((....))))))
5. GTTGCCGAAAGGCCCAAC ((((((....)))..)))
6. GATCTACCCCTAGATC ((((((....))))))
7. GGAATCTCGAAAGAGTCC (((..(((....))))))
8. GCTAGTCGAAAGACGAGC (((.(((....))).)))

Response:
[50.9, 67.9, 56.7, 66.6, 29.4, 39.9, 33.2, 57.6]

Dear colleague, could you send me Tm for each of the items below? Thanks.
1. GTTTAAGGAAACTTAAGC (.(((((....))))).)
2. GATCGCTCTTGCGATC ((((((....))))))
3. GCCGGGCCGAAAGGCGGC (((..(((....))))))
4. GTTGTGCGAAAGCAAAC (((.(((....))))))
5. GGCTGTCGAAAGACTGCC (((.(((....))).)))
6. GGAATAGGAAACTATCCC ((.((((....)))).))

Response:
32.4
68
59.4
46.8
63
28

Origin of the recorded values: the array DNA melting data of Ke et al. (doi:10.1101/2024.01.08.574731)
